- EXPERIMENT DESCRIPTION: Human HepG2 cell viability assay in 384 well format
- Format: toxicity, cell-based
- Parameters: dose 125 nL, time 70.5 hour; concentration not given beside the values
- DETAILS: HepG2 cells, read-out: Inhibition
Please provide measured cytotoxicity at 70.5 h for the entries that follow.
One number for each entry, in %.

Field: example entries. Status: answers known.
| COMPOUND | ASSAY VALUE |
| --- | --- |
| Cc1cc(C(=O)NCc2ccc(F)cc2)c2c(C3CCNC3)noc2n1 (stereo not drawn) | -7.85 |
| CN(CCCNS(=O)(=O)N1CCC2(CC1)OCCO2)c1ccccc1 | 22.7 |
| Cc1cc(C(=O)N2CCCC(C(=O)c3nccn3C)C2)c(=O)[nH]c1C (stereo not drawn) | 7.95 |
| CCC1=NC(SCC(=O)c2ccc(C)cc2)c2cc(CC)sc2N1 (stereo not drawn) | -15.9 |
| COc1ccc(F)c(CN2CC(=O)N(c3ccccc3C)CC2C)c1 (stereo not drawn) | -7.03 |
| NC(=O)C1CCN(c2nc3nccc(-c4ccccc4)c3c(=O)[nH]2)CC1 | -13.2 |

Can you give me cytotoxicity at 70.5 h for all of these, one by one?
1. CC(NC(=O)c1cc2n(n1)CCCN(C)C2)c1cn2ncsc2n1 (stereo not drawn)
2. CN(Cc1cccc(C(N)=O)c1)CC1CCCN1c1cccnn1 (stereo not drawn)
3. CC(O)CN1CCC(=O)N(Cc2ccccc2)Cc2ccccc21 (stereo not drawn)
4. CC(C)COC(C)C(=O)NCc1cc(F)cc(F)c1 (stereo not drawn)
5. CCS(=O)(=O)NC1CCCN(c2cc(C)ccc2F)C1=O (stereo not drawn)
6. CC1(C)CNC(=O)c2nc(-c3n[nH]c(=O)[nH]3)[nH]c2C1

Data returned:
1. -7.44
2. -10.2
3. 21.2
4. -13.3
5. -1.61
6. -5.75

Can you give me cytotoxicity at 70.5 h for all of these, one by one?
1. O=C(c1cccnc1)N1CCN(c2ccnc3ccsc23)CC1
2. Cc1ccccc1OC1CCN(S(=O)(=O)c2c(C)n[nH]c2C)CC1
3. COCCN1C(=O)CO[C@H]2CN(S(=O)(=O)c3ccccc3)C[C@H]21
4. COc1ncc(-c2nccn2C(C)CCn2cccn2)cn1 (stereo not drawn)
5. CNC(=O)c1c(C)cccc1NCc1nnc(C2CC2)o1

Data returned:
1: -10.7; 2: -6.57; 3: -12.7; 4: 2.54; 5: -2.15
